abundance fitness values for the variants below.
B1: Chromodomain-helicase-DNA-binding protein 4, residues 623 to 675; numbered along this chain, Q14839 (parent)
chain: MIHRILNHSVDKKGHVHYLIKWRDLPYDQASWESEDVEIQDYDLFKQSYWNHR

variants of: B1; assay: abundance fitness (aPCA) (normalised: wild type 0, dead -1); higher = more abundant; growth selection in yeast, the domain comes from the species named; conditions: Homo sapiens
parameter: abundance fitness

> print(dat)
    variant.id          parameter  value.observed
 1        H17M  abundance fitness          -0.034
 2        D28I  abundance fitness          -0.664
 3        P26T  abundance fitness          -0.392
 4        D11S  abundance fitness          -0.305
 5        H15N  abundance fitness           0.081
 6        I20M  abundance fitness          -0.612
 7        H15W  abundance fitness          -0.631
 8        H17W  abundance fitness          -0.302
 9        H15E  abundance fitness          -0.123
10        D11W  abundance fitness          -0.694
11        D11R  abundance fitness          -0.762
12        D11Y  abundance fitness          -0.792
13        K13E  abundance fitness          -0.066
14        A30W  abundance fitness          -0.465
15        Y27C  abundance fitness          -0.171
16        Y18W  abundance fitness          -0.787
17        D24Y  abundance fitness           -0.53
18        D28M  abundance fitness          -0.685
19        Y18G  abundance fitness          -0.798
20        P26H  abundance fitness          -0.274
21        W22R  abundance fitness          -0.855
22        D28H  abundance fitness          -0.139
23        I20T  abundance fitness          -0.885
24        W22E  abundance fitness          -0.823
25        K13C  abundance fitness          -0.267
26        H17F  abundance fitness          -0.312
27        D24I  abundance fitness          -0.725
28        L25R  abundance fitness           0.059
29        W32F  abundance fitness           -0.93
30        D28T  abundance fitness          -0.098
31        W32H  abundance fitness          -0.788
32        H15D  abundance fitness          -0.511
33        P26L  abundance fitness           -0.62
34        Y27H  abundance fitness           0.068
35        W32I  abundance fitness           -0.71
36        A30N  abundance fitness          -0.347
37        Q29M  abundance fitness            -0.4
38        W22I  abundance fitness          -0.797
39        E33H  abundance fitness          -0.266
40        H17A  abundance fitness          -0.252
41        D11T  abundance fitness          -0.518
42        D24H  abundance fitness          -0.142
43        D28W  abundance fitness          -0.333
44        S31M  abundance fitness           -1.01
45        H15C  abundance fitness          -0.171
46        L25S  abundance fitness          -0.125
